# Test system: HINF 30063
# Assay remarks: In vitro MIC by standard agar dilution method, HINF 30063
# Type: cell-based, H. influenzae
# Details: Haemophilus influenzae; agar dilution, Mueller Hinton agar, incubated overnight at 35° C.; lowest concentration that inhibits visible growth; read-out: HINF 30063 MIC (Minimum Inhibitory Concentration)
Endpoint name: MIC (µg/mL)
Expressed in µg/mL, but write only the number.

MIC measured on CC(=O)NC[C@H]1CN(c2ccc(N3CCN(C(=O)CCCC#Cc4ccc(CN)cc4)CC3)c(F)c2)C(=O)O1 = 16

MIC measured on CCC(=O)NC[C@H]1CN(c2ccc(C3(C)CN(C(=O)CCCC#Cc4cccc(CN)c4)C3)cc2)C(=O)O1 = 16

MIC measured on CNCc1ccc(C#CCCCC(=O)N2CCN(c3ccc(N4C[C@H](CNC(C)=O)OC4=O)cc3F)CC2)cc1 = 32

MIC measured on C#CCCCCC(=O)N1CCN(c2ccc(N3C[C@H](CNC(C)=O)OC3=O)cc2F)CC1 = 64

MIC measured on CC(=O)NC[C@H]1CN(c2ccc(N3CCN(CC#Cc4ccccc4)CC3)c(F)c2)C(=O)O1 = 16

MIC measured on CC(=O)NC[C@H]1CN(c2ccc(N3CCN(C(=O)CCCCC#Cc4cccc(CN)c4)CC3)c(F)c2)C(=O)O1 = 64

MIC measured on CC(=O)NC[C@H]1CN(c2ccc(N3CCN(C(=O)CCCCC#Cc4ccc(CN)cc4)CC3)c(F)c2)C(=O)O1 = 32

MIC measured on CC(=O)NC[C@H]1CN(c2ccc(N3CCN(C(=O)CCC#Cc4c[nH]c(=O)[nH]c4=O)CC3)c(F)c2)C(=O)O1 = 32

MIC measured on CC(=O)NC[C@H]1CN(c2ccc(N3CCN(C(=O)CCCC#Cc4cccc(CN)c4)CC3)c(F)c2)C(=O)O1 = 16

MIC measured on CC(=O)NC[C@H]1CN(c2ccc(N3CCN(C(=O)CCC#Cc4cccc(CN)c4)CC3)c(F)c2)C(=O)O1 = 16

* * *

For each entry below, report its MIC value.
# Tested on: HINF 30063
# Assay remarks: In vitro MIC by standard agar dilution method, HINF 30063
# Assay type: cell-based, H. influenzae
# Details: Haemophilus influenzae; agar dilution, Mueller Hinton agar, incubated overnight at 35° C.; lowest concentration that inhibits visible growth; read-out: HINF 30063 MIC (Minimum Inhibitory Concentration)
Counter-ions that a name gives are not always drawn.

MIC measured on CC(=O)NC[C@H]1CN(c2ccc(N3CCN(C(=O)CCC#Cc4ccc(N)cc4)CC3)c(F)c2)C(=O)O1 = 64 µg/mL

MIC measured on CC(=O)NC[C@H]1CN(c2ccc(N3CCN(C(=O)CCCC#Cc4ccc(C(C)=O)cc4)CC3)c(F)c2)C(=O)O1 = > 64 µg/mL

MIC measured on C#CCCC(=O)N1CCN(c2ccc(N3C[C@H](CNC(C)=O)OC3=O)cc2F)CC1 = > 32 µg/mL

MIC measured on CC(=O)NC[C@H]1CN(c2ccc(N3CCN(C(=O)CCCC#Cc4ccc(Cn5ccnc5)cc4)CC3)c(F)c2)C(=O)O1 = > 64 µg/mL

MIC measured on CC(=O)NC[C@H]1CN(c2ccc(N3CCN(C(=O)CCCC#Cc4ccc(O)cc4)CC3)c(F)c2)C(=O)O1 = > 64 µg/mL

MIC measured on CC(=O)NC[C@H]1CN(c2ccc(N3CCN(C(=O)CCCC#Cc4ccc(/C(C)=N/O)cc4)CC3)c(F)c2)C(=O)O1 [Compound 15, HCl salt] = > 16 µg/mL

MIC measured on CC(=O)NC[C@H]1CN(c2cc(F)c(N3CCN(C(=O)CCCC#Cc4cccc(CN)c4)CC3)c(F)c2F)C(=O)O1 = 16 µg/mL
